Tested on: MS2 coat protein
experiment description: apparent KD of MS2 coat protein; designed switch direction (-1 OFF switch, 1 ON switch): -1; higher = weaker reporter binding
details: input ligand: none
recorded metric: apparent KD of MS2 coat protein (nM)

[
  {
    "residue sequence": "AAUAACAUGUUGAUCAAAUACAUGAGGAUCACCCAUGUAAGCUUUUUGUUCGUAGAUUAACACUAAUAAUAAUAAUA [Stov1new/2-B] (Eterna round: R97, puzzle: Sensor, turn-off variant 1)",
    "recorded metric": "apparent KD of MS2 coat protein",
    "experimental value": 16.7
  },
  {
    "residue sequence": "UGCCGAUGAGGAUAUACAUUGAAUAAGAUUCAUGUAAAACUACAUGAGGAUCACCCAUGUAGAAGGCAUUGGCU [Mat - Exclusion 2 - JL Mod - D69] (Eterna round: R97, puzzle: Exclusion 2)",
    "recorded metric": "apparent KD of MS2 coat protein",
    "experimental value": 15.6
  },
  {
    "residue sequence": "CCUUAGUCACAGGAUAUGCUCAUCUAAUGAUGAGCAGAAGGGUGAACAUGAGGAUCACCCAUGUUUACCAGGGU [Omei Ex6 E4] (Eterna round: R97, puzzle: Exclusion 6)",
    "recorded metric": "apparent KD of MS2 coat protein",
    "experimental value": 37.1
  },
  {
    "residue sequence": "CUUUUGUGAGGAUAUUAGUAGUAUAUAAUUGGUGAUAUUGCUGAGAAGGCACAUGAGGAUCACCCAUGUACAAC [JR_Ex4_Sub034] (Eterna round: R97, puzzle: Exclusion 4)",
    "recorded metric": "apparent KD of MS2 coat protein",
    "experimental value": 441
  },
  {
    "residue sequence": "UCCCGUCUAUGGAGAUUUUACAUGAGGAUCACCCAUGUUGGGACCGCUCUUUGCUUGUCUUCUCCUACUUCGUGUGU [mod-Gracier #4] (Eterna round: R97, puzzle: Sensor, turn-off variant 1)",
    "recorded metric": "apparent KD of MS2 coat protein",
    "experimental value": 87.2
  }
]
